System: CAL-148
test.method.notes: normalised response (% of control), CellTox Green; higher = less cell death (100 = DMSO, 0 = benzethonium chloride kill control)
condition.details: incubation time: 72 h
measured.attribute: normalised response (%)
Respond with the bare value in %.

Example cases with answers are listed next.
Cc1ccc(C(=O)Nc2ccc(CN3CCN(C)CC3)c(C(F)(F)F)c2)cc1C#Cc1cnc2cccnn12 [Ponatinib] (100 nM) ... 104
Cn1c(CCCC(=O)O)nc2cc(N(CCCl)CCCl)ccc21 [Bendamustine] (1000 nM) ... 101
Cc1ccc(-n2nc(C(C)(C)C)cc2NC(=O)Nc2ccc(OCCN3CCOCC3)c3ccccc23)cc1 [Doramapimod] (10000 nM) ... 98.2
O=C(CCCCCCC(=O)Nc1ccc([C@H]2O[C@@H](CSc3nc(-c4ccccc4)c(-c4ccccc4)o3)C[C@@H](c3ccc(CO)cc3)O2)cc1)NO [Tubacin] (100 nM) ... 98.1

Now, please, on to the next molecule.
Lookup: Give the measured normalised response of C[C@@H](Oc1cc(-c2cnn(C3CCNCC3)c2)cnc1N)c1c(Cl)ccc(F)c1Cl [Crizotinib] (100 nM) .
Found: 106

----------
Tested on: DU-4475
test.method.notes: normalised viability (% of control), CellTiter-Blue; higher = more viable cells (about 100 = DMSO control)
condition.details: incubation time: 72 h
Sorting guide: entries reporting normalised viability beneath 80% go in the T pile, the rest go in the F pile.

Observe how each entry below is paired with its result.
CCN(CCCOc1ccc2c(Nc3cc(CC(=O)Nc4cccc(F)c4)[nH]n3)ncnc2c1)CCOP(=O)(O)O [Barasertib] (100 nM) ... T
CN[C@@H]1C[C@H]2O[C@@](C)([C@@H]1OC)n1c3ccccc3c3c4c(c5c6ccccc6n2c5c31)C(=O)N[C@H]4O [UCN-01] (1000 nM) ... T
CCC1(c2ccc(N)cc2)CCC(=O)NC1=O (stereo not drawn) [Aminoglutethimide] (1000 nM) ... F
C[C@]12CC[C@@H]3c4ccc(O)cc4C[C@@H](CCCCCCCCC[S+]([O-])CCCC(F)(F)C(F)(F)F)[C@H]3[C@@H]1CC[C@@H]2O (stereo partly drawn) [Fulvestrant] (1000 nM) ... F
CN(C)/N=N/c1[nH]cnc1C(N)=O [Dacarbazine] (1000 nM) ... F

Lookup: Is normalised viability strictly under 80% for the entry N.N.[Cl][Pt][Cl] [Cisplatin] (1000 nM) ?
Found: F

Lookup: Identify whether the molecule CCC1=C[C@@H]2CN(C1)Cc1c([nH]c3ccccc13)[C@@](C(=O)OC)(c1cc3c(cc1OC)N(C)[C@H]1[C@@](O)(C(=O)OC)[C@H](OC(C)=O)[C@]4(CC)C=CCN5CC[C@]31[C@@H]54)C2 [Vinorelbine] (1000 nM) records normalised viability below 80%.
Found: T

Lookup: Report whether reported normalised viability is lower than 80% (strictly) for CN(N=O)C(=O)N[C@@H](C=O)[C@@H](O)[C@H](O)[C@H](O)CO [Streptozocin] (1000 nM)
Found: F

----------
System: HCC1937
test.method.notes: normalised response (% of control), CellTiter-Glo; higher = more viable cells (100 = DMSO, 0 = benzethonium chloride kill control)
condition.details: incubation time: 72 h
In this section, each of the molecules is paired with its reported normalised response.
Write it as a number; the unit % goes unstated.

Examples from the recorded data:
C#Cc1cccc(Nc2ncnc3cc(OCCOC)c(OCCOC)cc23)c1 [Erlotinib] (100 nM) ... 99
Cc1ccc(-n2nc(C(C)(C)C)cc2NC(=O)Nc2ccc(OCCN3CCOCC3)c3ccccc23)cc1 [Doramapimod] (100 nM) ... 89.9
C[C@]12CC[C@@H]3c4ccc(O)cc4C[C@@H](CCCCCCCCC[S+]([O-])CCCC(F)(F)C(F)(F)F)[C@H]3[C@@H]1CC[C@@H]2O (some centres undefined) [Fulvestrant] (10 nM) ... 92.8
CNCc1ccc(-c2[nH]c3cc(F)cc4c3c2CCNC4=O)cc1 [Rucaparib] (100 nM) ... 99.2
O=C(O)c1ccc(-c2c[nH]c3ncc(-c4ccccc4)cc23)cc1C1CCCC1 (100 nM) ... 97.1
N.N.[Cl][Pt][Cl] [Cisplatin] (10 nM) ... 97.7
CCC1=C[C@@H]2CN(C1)Cc1c([nH]c3ccccc13)[C@@](C(=O)OC)(c1cc3c(cc1OC)N(C)[C@H]1[C@@](O)(C(=O)OC)[C@H](OC(C)=O)[C@]4(CC)C=CCN5CC[C@]31[C@@H]54)C2 [Vinorelbine] (100 nM) ... 71.4
CN(C)/N=N/c1[nH]cnc1C(N)=O [Dacarbazine] (100 nM) ... 102

Lookup: Recorded normalised response of COc1cc2nccc(Oc3ccc(NC(=O)C4(C(=O)Nc5ccc(F)cc5)CC4)cc3)c2cc1OC [Cabozantinib] (10 nM) , please.
Found: 94.6

Lookup: Which normalised response value is on record for CO[C@H]1/C=C\C=C(/C)C(=O)NC2=CC(=O)C(NCCN(C)C)=C(C[C@@H](C)C[C@H](OC)[C@H](O)[C@@H](C)/C=C(\C)[C@@H]1OC(N)=O)C2=O [Alvespimycin] (10 nM) ?
Found: 94.8
